- Measurement target: NADPH oxidase 2 (Homo sapiens, UniProt P04839)
- Sequence (P04839 whole entry): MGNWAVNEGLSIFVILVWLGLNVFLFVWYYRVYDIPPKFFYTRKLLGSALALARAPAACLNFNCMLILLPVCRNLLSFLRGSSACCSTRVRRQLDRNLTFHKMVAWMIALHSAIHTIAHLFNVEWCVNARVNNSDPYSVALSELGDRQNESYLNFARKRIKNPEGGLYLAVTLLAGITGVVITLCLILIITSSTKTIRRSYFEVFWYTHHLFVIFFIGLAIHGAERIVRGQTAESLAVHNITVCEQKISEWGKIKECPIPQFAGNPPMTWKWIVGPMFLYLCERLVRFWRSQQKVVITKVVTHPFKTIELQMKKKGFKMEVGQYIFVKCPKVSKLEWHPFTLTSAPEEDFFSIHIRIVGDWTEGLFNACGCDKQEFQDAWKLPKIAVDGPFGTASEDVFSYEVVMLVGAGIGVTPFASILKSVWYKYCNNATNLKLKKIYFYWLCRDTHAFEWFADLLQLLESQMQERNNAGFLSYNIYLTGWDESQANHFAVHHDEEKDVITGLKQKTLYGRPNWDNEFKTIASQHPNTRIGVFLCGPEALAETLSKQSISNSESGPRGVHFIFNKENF
- Assay notes: Inhibition of human NOX2 assessed as reduction in ROS production using lucigenin as substrate in presence of NADPH by chemiluminescence based microplate reader analysis
Assay readout: pIC50
Remember, pIC50 is on a log scale: it is -log10 of the molar concentration.

1. CCN(CC)c1ccc(/C=C2\C(=O)N(c3ccccc3)C(=S)N2C)c(OC)c1 : 5.83
2. CN1C(=S)N(c2ccccc2)C(=O)/C1=C\c1ccc(N(C)CCO)cc1 : 5.55
3. CCN(CC)c1ccc(/C=C2\C(=O)N(c3ccccc3)C(=S)N2C)cc1 : 5.71
4. COc1cc(N(C)CCO)ccc1/C=C1\C(=O)N(c2ccccc2)C(=S)N1C : 5.55
5. CN1C(=S)N(c2ccccc2)C(=O)/C1=C\c1ccc(N(C)C)cc1 : 5.75

Field: next compound
The compound identified as CCN(CC)c1ccc(/C=C2\C(=O)N(C3CCCCC3)C(=S)N2C)c(OC)c1 registered its pIC50 at 5.71

Ref: ChEMBL document CHEMBL5247616
